Each recorded value in this set is attributed to paper PMC10397247.

Please provide measured interaction score for the entries that follow.
Molecular target: T1, 4H342-bN
T1 chain: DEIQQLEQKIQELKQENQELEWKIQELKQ
Experiment: two-hybrid library CCNG1;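 further: natural log of median RNA to DNA barcode read ratio; higher means stronger binding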

Record excerpt, results attached:
binder	interaction score
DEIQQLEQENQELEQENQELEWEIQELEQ [4H145-bN]	-2.65
DKIQQLKQKIQELKQEIQELEWENQELEQ [4H2883-bN]	-1.84
DKIQQLKQENQELEQEIQELEWKNQELKQ [4H2696-bN]	-0.885
DKIQQLKQENQELEQEIQELEWENQELEQ [4H2691-bN]	-0.0194
DKIQQLKQKIQELKQKNQELKWEIQELEQ [4H2937-bN]	1.46

Hi team, please reply with interaction score for each item in this list.
1. DEIQQLEQEIQELEQENQELEWENQELEQ [4H19-bN]
2. DKIQQLKQKIQELKQKNQELKWKNQELKQ [4H2944-bN]

Result:
[-1.48, -0.943]
